# test-protocol: UV absorption data (Example 74)
# Format: physicochemical
# protocol-conditions: 20 mg/l concentrations; not the molar extinction values
We use 0.4 as the dividing line for Absorbance @ 375 nm: on or above the line is Fulfilled, below is Not fulfilled.

As a guide, the following entries are already answered.
CC(C)(C)CC(C)(C)c1cc(-n2nc3ccc(C(F)(F)F)cc3n2)c(O)c(C(C)(C)c2ccccc2)c1 = Not fulfilled
CC(C)(C)CC(C)(C)c1ccc(O)c(-n2nc3ccc(C(F)(F)F)cc3n2)c1 = Not fulfilled
CC(C)(C)CC(C)(C)c1cc(-n2nc3ccc(S(=O)(=O)c4ccccc4)cc3n2)c(O)c(C(C)(C)c2ccccc2)c1 = Fulfilled
Oc1ccc(C(F)(F)F)cc1-n1nc2ccccc2n1 = Not fulfilled
COC(=O)c1ccc2nn(-c3cc(C(C)(C)CC(C)(C)C)cc(C(C)(C)c4ccccc4)c3O)nc2c1 = Fulfilled

Q: Would you say CC(C)(C)CC(C)(C)c1cc(-n2nc3ccccc3n2)c(O)c(C(C)(C)c2ccccc2)c1 shows Absorbance @ 375 nm at minimum 0.4?
Ans: Not fulfilled

Q: Would you say CCCCS(=O)(=O)c1ccc2nn(-c3cc(C(C)(C)CC(C)(C)C)cc(C(C)(C)c4ccccc4)c3O)nc2c1 shows Absorbance @ 375 nm at minimum 0.4?
Ans: Fulfilled
